Test system: NCI-H1734
experimentalDetails: relative viability (nuclei count vs DMSO), 5 days (fraction); higher = more cells survive
measurementParameters: first compound 0.3162 µM
For each entry below, report its relative viability value.
// return just the number, without any unit appended

Q) What measured relative viability goes with NC(=O)Nc1cc(-c2cccc(F)c2)sc1C(=O)N[C@H]1CCCNC1 [AZD7762] + Cc1nc(NC(=O)N2CCC[C@H]2C(N)=O)sc1-c1ccnc(C(C)(C)C(F)(F)F)c1 [Alpelisib] (partner 2 µM) ?
A) 0.753

Q) For the compound NC(=O)Nc1cc(-c2cccc(F)c2)sc1C(=O)N[C@H]1CCCNC1 [AZD7762] + CCNC(=O)c1noc(-c2cc(C(C)C)c(O)cc2O)c1-c1ccc(CN2CCOCC2)cc1 [Luminespib] (partner 0.01 µM) , what relative viability is on record?
A) 0.162

Q) Entry NC(=O)Nc1cc(-c2cccc(F)c2)sc1C(=O)N[C@H]1CCCNC1 [AZD7762] + CS(=O)(=O)N1CCN(Cc2cc3nc(-c4cccc5[nH]ncc45)nc(N4CCOCC4)c3s2)CC1 [Pictilisib] (partner 1 µM) : reported relative viability = ?
A) 0.384

Q) Consider the compound shown here: NC(=O)Nc1cc(-c2cccc(F)c2)sc1C(=O)N[C@H]1CCCNC1 [AZD7762] + C[C@]1(O)C[C@@H](c2nc(-c3ccc4ccc(-c5ccccc5)nc4c3)c3c(N)nccn32)C1 [Linsitinib] (partner 1 µM) What is its recorded relative viability?
A) 0.869

Q) Any idea what its relative viability is? The compound is NC(=O)Nc1cc(-c2cccc(F)c2)sc1C(=O)N[C@H]1CCCNC1 [AZD7762] + Cc1cc(Nc2cc(N3CCN(C)CC3)nc(Sc3ccc(NC(=O)C4CC4)cc3)n2)n[nH]1 [Tozasertib] (partner 0.1 µM)
A) 0.22

Q) Return reported relative viability; argument: NC(=O)Nc1cc(-c2cccc(F)c2)sc1C(=O)N[C@H]1CCCNC1 [AZD7762] + N=C(N)NC(=N)NCCc1ccccc1 [Phenformin] (partner 250 µM)
A) 0.33
